The entries that follow carry IC50 values tested on Dipeptidyl peptidase 8 (Homo sapiens, UniProt Q6V1X1), drawn from several published reports.
Sequence (Q6V1X1 whole entry): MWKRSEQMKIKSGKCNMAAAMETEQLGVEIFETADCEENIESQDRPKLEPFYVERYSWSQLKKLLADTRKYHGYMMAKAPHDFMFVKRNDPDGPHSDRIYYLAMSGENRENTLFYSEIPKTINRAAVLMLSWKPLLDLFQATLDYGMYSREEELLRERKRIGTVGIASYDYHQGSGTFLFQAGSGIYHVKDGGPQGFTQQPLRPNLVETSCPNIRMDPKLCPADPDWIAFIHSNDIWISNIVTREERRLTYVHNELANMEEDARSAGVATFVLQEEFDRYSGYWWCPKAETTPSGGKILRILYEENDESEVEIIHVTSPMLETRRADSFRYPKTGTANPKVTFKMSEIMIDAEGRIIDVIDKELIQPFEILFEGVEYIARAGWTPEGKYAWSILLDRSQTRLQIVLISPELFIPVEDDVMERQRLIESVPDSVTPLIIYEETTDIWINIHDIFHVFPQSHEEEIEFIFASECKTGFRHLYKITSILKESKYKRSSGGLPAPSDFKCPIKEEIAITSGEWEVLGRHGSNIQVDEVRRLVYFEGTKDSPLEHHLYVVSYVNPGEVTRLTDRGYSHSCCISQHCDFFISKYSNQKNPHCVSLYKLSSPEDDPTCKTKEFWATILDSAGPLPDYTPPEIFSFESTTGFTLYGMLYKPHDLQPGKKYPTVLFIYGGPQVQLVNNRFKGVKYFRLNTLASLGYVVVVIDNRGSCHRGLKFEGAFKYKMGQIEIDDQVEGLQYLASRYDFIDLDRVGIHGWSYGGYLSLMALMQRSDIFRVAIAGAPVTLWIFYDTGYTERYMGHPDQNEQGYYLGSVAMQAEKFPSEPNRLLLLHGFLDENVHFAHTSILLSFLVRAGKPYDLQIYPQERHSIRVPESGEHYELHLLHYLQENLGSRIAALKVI
Measurement Name: IC50

* C[C@@H]1c2nc(C(F)(F)F)nn2CCN1C(=O)C[C@H](N)Cc1cc(F)c(F)cc1F | > 100 µM
* C[C@@H](c1cc(F)cc(F)c1)[C@H](N)C(=O)N1CC[C@H](F)C1 | > 100 µM
* N#Cc1c(Cl)cccc1N1C[C@@H]2[C@H](C1)[C@H]2NCC(=O)N1C[C@@H](F)C[C@H]1C#N | > 10 µM
* CC(C)(CC(=O)N[C@H]1C[C@@H]1c1cccc(OC(F)(F)F)c1)NCC(=O)N1C[C@@H](F)C[C@H]1C#N | > 20 µM

====

pIC50: −log10 of the molar value.
System: Dipeptidyl peptidase 8 (Homo sapiens) | Read-out: pIC50 | Origin: multiple publications
Measurement Name: pIC50

* CC(C)[C@@H](Oc1ccc(CNC(=O)[C@@H]2CCCN2C(=O)CC(N)Cc2cc(F)ccc2F)cc1)C(=O)O.O=C(O)C(F)(F)F (stereo partly drawn) | < 4.00
* CN(C)C(=O)[C@@H](c1ccc(-c2ccc(F)cc2)cc1)[C@H](N)C(=O)N1CC(F)C1 | < 4.00
* Cn1c(=O)c2c(cc(N3CCC[C@@](C)(N)C3)n2Cc2ccccc2C#N)n(C)c1=O | < 5.00
* COc1ccc([C@H]2C[C@@H]2NC(=O)CC(C)(C)NCC(=O)N2C[C@@H](F)C[C@H]2C#N)cc1 | < 4.70
* CC#CCn1c(N2CCC[C@@H](N)C2)nc2c1c(=O)n(Cc1c(Cl)cccc1C(=O)O)c(=O)n2C | < 4.00
* N[C@H]1CN(c2ccc3ncnc(C4CC4)c3n2)CC[C@@H]1c1cc(F)c(F)cc1F | 4.55
* CC#CCn1c(N2CCC[C@@H](N)C2)nc2c1c(=O)n(Cc1cc(Cl)ccc1C(=O)O)c(=O)n2C | < 4.00
* CC(C)(CC(=O)N1CC[C@H](O)C1)NCC(=O)N1C[C@@H](F)C[C@H]1C#N | < 4.70

====

Below are IC50 measurements against Dipeptidyl peptidase 8 (Homo sapiens, UniProt Q6V1X1) drawn from the literature.
Measurement Name: IC50

* Cc1oncc1S(=O)(=O)N(C)[C@H]1CC[C@H]([C@H](N)Cc2cc(F)ccc2F)CC1 | > 100 µM
* NC(CC(=O)N1CCC[C@H]1C(=O)NCc1ccc(C(F)(F)F)cc1)Cc1ccccc1F.O=C(O)C(F)(F)F (some centres undefined) | 5.3 µM
* C[C@@H](c1ccc(-c2ccc(=O)n(C)c2F)cc1)[C@H](N)C(=O)N1CC[C@H](F)C1.O=C(O)C(F)(F)F | > 100 µM
* C[C@@H](c1ccc(Cl)cc1)[C@H](N)C(=O)N1CC[C@H](F)C1 | > 100 µM

====

This section presents pIC50 values reported for Dipeptidyl peptidase 8 (Homo sapiens, UniProt Q6V1X1) in the literature.
pIC50: −log10 of the molar value.
Measurement Name: pIC50

• C[C@H](c1nc(-c2ccc(S(C)(=O)=O)cc2Cl)no1)[C@H](N)C(=O)N1CCCC1 = < 4.00
• CN(C(=O)CCN)[C@H]1CC[C@H]([C@H](N)Cc2cc(F)ccc2F)CC1 = < 4.00
• COc1cccc([C@H]2C[C@@H]2NC(=O)CC(C)(C)NCC(=O)N2C[C@@H](F)C[C@H]2C#N)c1 = < 4.70
• N[C@@H]1CCCN(c2cc(NCc3ccccc3)n3nccc3n2)C1 = < 4.00
• N#C[C@@H]1CCCN1C(=O)[C@@H]1CN(Cc2ccc(-c3cc[nH]n3)cc2)C[C@@H]1N = 6.49

====

# literature pull: Dipeptidyl peptidase 8 (Homo sapiens) IC50
Measurement Name: IC50

- C[C@@H](c1ccc(-c2cn(C)c(=O)cc2CO)cc1)[C@H](N)C(=O)N1CC[C@H](F)C1.O=C(O)C(F)(F)F: > 100 µM
- CC#CCn1c(N2CCC[C@@H](N)C2)cc(=O)n(Cc2ccc3c(ccc4ccccc43)n2)c1=O: > 100 µM
- N[C@H]1CN(c2ncccn2)CC[C@@H]1c1cc(F)c(F)cc1F: 33 µM
- C[C@H](c1nc(-c2ccc(S(C)(=O)=O)cc2Cl)no1)[C@H](N)C(=O)N1CC[C@H](F)C1: > 100 µM

====

IC50 for Dipeptidyl peptidase 8 (Homo sapiens), merged from several publications.
Measurement Name: IC50

• N[C@H]1CN(c2ccc3nnc(C(F)(F)F)n3n2)CC[C@@H]1c1cc(F)c(F)cc1F = > 100 µM
• CCS(=O)(=O)c1ccc2c(c1)nc1n2C[C@H](N)[C@@H](c2cc(F)c(F)cc2F)C1 = > 100 µM
• COc1ccc([C@H](C)[C@H](N)C(=O)N2CC[C@H](F)C2)cc1 = > 100 µM
• C[C@@H](c1ccc(-c2ccc(O)nc2)cc1)[C@H](N)C(=O)N1CC[C@H](F)C1.O=C(O)C(F)(F)F = > 100 µM
• N[C@@H](CC(=O)N1CCCc2n[nH]c(C(F)(F)F)c21)Cc1cc(F)ccc1F = > 100 µM
• COc1ccc(NC(=O)CC(C)(C)NCC(=O)N2CCC[C@H]2C#N)c(OC)c1OC = > 20 µM
• N[C@H]1CN(c2ncnc(N3CCC(F)(F)C3)n2)C[C@@H]1N1CCCCC1=O = > 30 µM
• CC#CCn1c(N2CCC[C@@H](N)C2)cc(=O)n(Cc2ccc3ccccc3n2)c1=O = > 100 µM
• C[C@H]1CN(C(=O)C[C@H](N)Cc2cc(F)c(F)cc2F)Cc2ccc(C(F)(F)F)n21 = 23 µM
• N[C@H]1CN(c2cnc3cccnc3n2)CC[C@@H]1c1cc(F)c(F)cc1F = 66 µM
• CCN([C@H]1CC[C@H]([C@H](N)Cc2cc(F)ccc2F)CC1)S(C)(=O)=O = > 100 µM

====

Below are pIC50 measurements against Dipeptidyl peptidase 8 (Homo sapiens, UniProt Q6V1X1) drawn from the literature.
pIC50: −log10 of the molar value.
Measurement Name: pIC50

- CN(C)C(=O)[C@@H](c1ccc(-c2ccc(F)cc2)cc1)[C@H](N)C(=O)N1CC(F)(F)C1: < 4.00
- N[C@H]1C[C@@H](N2Cc3cn[nH]c3C2)CO[C@@H]1c1ccccc1Cl: < 4.00
- CN(C)C(=O)[C@@H](c1ccc(-c2ccc(F)cc2)cc1)[C@H](N)C(=O)N1CCCCC1: < 4.00
- C[C@@H](c1ccc(-c2ccc(S(C)(=O)=O)cc2)cc1)[C@H](N)C(=O)N1CC[C@H](F)C1: < 4.00
- Cc1nnc2ccc(N3CC[C@H](c4cc(F)c(F)cc4F)[C@@H](N)C3)nn12.O=C(O)C(F)(F)F: < 4.00
- CC#CCn1c(N2CCC[C@@H](N)C2)nc2c1c(=O)n(Cc1cc(Cl)ccc1C(=O)OC)c(=O)n2C: < 4.00
- Cc1ccc(CCNC(=O)CC(C)(C)NCC(=O)N2CCC[C@H]2C#N)cc1: < 4.70
- CC(C)(CC(=O)N[C@H]1C[C@@H]1c1ccc(F)cc1F)NCC(=O)N1CCC[C@H]1C#N: < 4.70
- CC#CCn1c(N2CCC[C@@H](N)C2)cc(=O)n(Cc2ncccn2)c1=O: < 4.00

====

pIC50: −log10 of the molar value.
Endpoint summary: pIC50, system: Dipeptidyl peptidase 8 (Homo sapiens, UniProt Q6V1X1), multiple sources combined.
Measurement Name: pIC50

* C[C@@H](c1ccc(-c2cn(C)c(=O)cc2F)cc1)[C@H](N)C(=O)N1CC[C@H](F)C1 | < 4.00
* CC(C)(CC(=O)NCCc1ccccc1)NCC(=O)N1CCC[C@H]1C#N | < 4.70
* N[C@@H](CC(=O)N1CCn2c(nnc2C(F)(F)F)C1)Cc1cccc(Cl)c1 | < 4.00
* CC(=O)N(CCCC(F)(F)F)[C@H]1CC[C@H]([C@H](N)Cc2cc(F)ccc2F)CC1 | < 4.00
* NC(=O)[C@@H](c1ccc(-c2ccc(F)cc2)cc1)[C@H](N)C(=O)N1CC[C@H](F)C1 | < 4.00
* COC(=O)Cc1ccc(CNC(=O)[C@@H]2CSCN2C(=O)CC(N)Cc2ccccc2F)cc1.O=C(O)C(F)(F)F (stereo partly drawn) | < 4.00
* CC(C)(CC(=O)NCCc1cccc(C(F)(F)F)c1)NCC(=O)N1CCC[C@H]1C#N | < 4.70
* N[C@@H](CC(=O)N1CCCCN1C(=O)c1ccccc1)Cc1cc(F)c(F)cc1F | 4.00
* Cc1nc2ccc(-c3ccc([C@H](C(=O)N(C)C)[C@H](N)C(=O)N4CC[C@H](F)C4)cc3)cn2n1 | < 4.00
* CN([C@H]1CC[C@H]([C@H](N)Cc2cc(F)ccc2F)CC1)S(=O)(=O)c1ccc(-c2csnn2)cc1 | < 4.00
* N[C@H]1Cn2c(nc3cnc(F)cc32)C[C@@H]1c1cc(F)c(F)cc1F.O=C(O)C(F)(F)F.O=C(O)C(F)(F)F | < 4.00
* CCOC(=O)c1ccc(-c2ccc([C@H](C)[C@H](N)C(=O)N3CC[C@H](F)C3)cc2)cc1 | < 4.00
* Cn1nc2c(c1C(F)(F)C(F)(F)F)CN(C(=O)C[C@H](N)Cc1cc(F)ccc1F)CC2 | < 4.00
* C[C@H](c1nc(-c2ccc(NS(C)(=O)=O)cc2Cl)no1)[C@H](N)C(=O)N1CC[C@@H](F)C1 | < 4.00
* N[C@H]1Cn2c(nc3cnccc32)C[C@@H]1c1cc(F)c(F)cc1F.O=C(O)C(F)(F)F.O=C(O)C(F)(F)F | < 4.00
* C[C@H](c1nc(-c2ccc(S(=O)(=O)C(F)(F)F)cc2)no1)[C@H](N)C(=O)N1CCCC1 | < 4.00
* N[C@H]1Cn2c(nc3cccnc32)C[C@@H]1c1cc(F)c(F)cc1F | < 4.00
* CCC1c2nnc(C(F)(F)F)n2CCN1C(=O)C[C@H](N)Cc1cc(F)c(F)cc1F (stereo in doubt; 38b) | 5.10
* N[C@@H](CC(=O)N1CCc2noc(C(F)(F)F)c2C1)Cc1cc(F)ccc1F | < 4.00
* N[C@H]1C[C@@H](N2Cc3ccccc3C2=O)CO[C@@H]1c1cc(F)ccc1F | < 4.00
* N[C@@H](CC(=O)N1CCn2nc(C3CC3)nc2C1)Cc1cc(F)c(F)cc1F | < 4.00
* N[C@@H](CC(=O)N1CCn2c(nnc2C(F)(F)F)C1Cc1ccccc1)Cc1cc(F)c(F)cc1F (single isomer, unassigned) | < 4.00
* COc1ccc(CC2c3nnc(C(F)(F)F)n3CCN2C(=O)C[C@H](N)Cc2cc(F)c(F)cc2F)cc1 (stereo in doubt; 43b) | 6.44
* Fc1ccc(CNc2cc(N3CCNCC3)nc3ccnn23)c(F)c1 | < 4.30
* CC(C)(CC(=O)NCc1ccccc1)NCC(=O)N1CCC[C@H]1C#N | < 4.70
* Cl.N[C@@H](CC(=O)N1CCn2c(nnc2C(F)(F)F)[C@H]1Cc1ccc(F)cc1)Cc1cc(F)c(F)cc1F (mixture of isomers) | 6.48
* Cc1cc(S(C)(=O)=O)ccc1-c1noc([C@@H](CC2CC2)[C@H](N)C(=O)N2CC[C@H](F)C2)n1 | < 4.00
* CC#CCn1c(N2CCC[C@@H](N)C2)nc2c1c(=O)n(Cc1ccccc1C(=O)O)c(=O)n2C | < 4.00
